# credit: the supplement of paper PMC12042874

# ASSAY_SUMMARY: amyloid nucleation score (Sup35N fusion, yeast selection) (log enrichment); library NNK3; higher = more nucleation; inactive = no reads after selection;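 note: zero at mode of non-aggregating sequences after 7 days selection at 30°C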
READOUT_TYPE: amyloid nucleation score

Here are 5 substances together with their reported answers.
amyloid nucleation score reported for this substance KNGFRNVRKQRGAQKE : inactive

amyloid nucleation score reported for this substance NIRYVWCQKRLTCARSWNPV : inactive

amyloid nucleation score reported for this substance FSRTSCVGDCYCGAYNRLSG : 2.02

amyloid nucleation score reported for this substance SLEGTYGHLRQELTTSPNAH : 0.907

amyloid nucleation score reported for this substance LWHSYFSFYLCVTFENRVIN : 2.79

Give amyloid nucleation score for each listed item.
1. CMLNRNFWVVYSHVGRRRL
2. VWPQNLNPICKSNLTRCVGC

RESULT:
1: inactive; 2: inactive

Give amyloid nucleation score for each listed item.
1. WDVYLPLVMSLK
2. SILKDS
3. HMIGRCLVGIESYRW
4. VRIRGWFAGHGNFWFSL

RESULT:
1. 1.29
2. inactive
3. inactive
4. inactive

Give amyloid nucleation score for each listed item.
1. RITLSIDLLSSEYNRIAPRR
2. NVNILFDNLIRDWFVSMWED
3. TYTWKVTNSTISQLFGYLAD
4. NENTALSTWAPGYLINSYRA
5. RLIQTLWIFIKVRSRALVTH

RESULT:
1: 1.82; 2: inactive; 3: inactive; 4: inactive; 5: inactive

amyloid nucleation score reported for this substance DWEARCCREVTGNGVFESQK : inactive
